Target: T1, mouse programmed cell death protein 1 Fc fusion protein (mPD-1-Fc), mPD-1 C60S (aa 25-167) (Mus musculus, UniProt Q02242, stabilised)
T1 construct: not cleaved; source: Expi293F, purified (Protein A, SEC; dimeric fraction); not shown: Fc (human), C-terminal, kept
Assay: SPR; Carterra LSA; Fab from the ammonium sulfate precipitate of the culture supernatant immobilised on a NiHC200M chip; hPD-1 (1-1024 nM) or mPD-1-Fc (4-1024 nM) as analyte, fourfold dilution series, no regeneration; HBS-EP pH 7.4, 25 °C; medians over the spots of a construct, KD = koff/kon
Conditions: one partner purified
Recorded kon for the following binders
Answer in M⁻¹ s⁻¹, number only, no unit symbol.

Task item: Field request: kon | item: toripalimab Fab L.R24A (Fab, V domains shown, as the heavy chain of Sm3; light chain of Sm3 with this change; numbers count from the chain's first residue; source: Brevibacillus, culture supernatant (ammonium sulfate precipitate); not shown: 6xHis, C-terminal, kept; 6xHN, C-terminal, kept) VH: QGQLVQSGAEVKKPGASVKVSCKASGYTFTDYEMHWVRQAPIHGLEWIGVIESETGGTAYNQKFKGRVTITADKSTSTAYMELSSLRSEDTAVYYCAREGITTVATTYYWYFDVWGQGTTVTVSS VL: DVVMTQSPLSLPVTLGQPASISCASSQSIVHSNGNTYLEWYLQKPGQSPQLLIYKVSNRFSGVPDRFSGSGSGTDFTLKISRVEAEDVGVYYCFQGSHVPLTFGQGTKLEIK
Reply: 39900

Task item: Field request: kon | item: toripalimab Fab L.L101F (Fab, V domains shown, as the heavy chain of Sm3; light chain of Sm3 with this change; numbers count from the chain's first residue; source: Brevibacillus, culture supernatant (ammonium sulfate precipitate); not shown: 6xHis, C-terminal, kept; 6xHN, C-terminal, kept) VH: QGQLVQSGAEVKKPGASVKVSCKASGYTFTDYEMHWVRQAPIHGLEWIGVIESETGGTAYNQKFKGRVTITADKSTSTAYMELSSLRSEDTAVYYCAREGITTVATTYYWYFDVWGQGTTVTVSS VL: DVVMTQSPLSLPVTLGQPASISCRSSQSIVHSNGNTYLEWYLQKPGQSPQLLIYKVSNRFSGVPDRFSGSGSGTDFTLKISRVEAEDVGVYYCFQGSHVPFTFGQGTKLEIK
Reply: 60300

Task item: Field request: kon | item: toripalimab Fab H.T58A (Fab, V domains shown, heavy chain of Sm3 with this change; numbers count from the chain's first residue; as the light chain of Sm3; source: Brevibacillus, culture supernatant (ammonium sulfate precipitate); not shown: 6xHis, C-terminal, kept; 6xHN, C-terminal, kept) VH: QGQLVQSGAEVKKPGASVKVSCKASGYTFTDYEMHWVRQAPIHGLEWIGVIESETGGAAYNQKFKGRVTITADKSTSTAYMELSSLRSEDTAVYYCAREGITTVATTYYWYFDVWGQGTTVTVSS VL: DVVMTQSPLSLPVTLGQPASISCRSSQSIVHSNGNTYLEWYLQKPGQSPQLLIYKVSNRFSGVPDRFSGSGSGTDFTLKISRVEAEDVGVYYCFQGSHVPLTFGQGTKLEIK
Reply: 39000

These measurements were taken from paper PMC10663500.
